Hello, the source for this data is patent US12281122B1, in case you need it.

# System: SKBR3 (PI3Kα-Wild Type) cell line
# experiment notes: HTRF phospho-AKT(S473) cell assay in SKBR3 cells
# Format: cell-based, human
# condition summary: Homo sapiens, SK-BR-3; HTRF phospho-AKT(S473), SKBR3 (PI3Kα-Wild Type) cells, 2 hours compound incubation, PDGF-BB stimulated
# Description: Compounds in the present disclosure were tested in a cell based HTRF phospho-AKT(S473) (CisBio/Revvity) assay in human breast cancer cell lines as a measurement of PIK3CA activity through measuring AKT, a downstream effector. The activity of mutant PI3Kα-H1047R and PI3Kα-Wild Type was measured in the T47D (PI3Kα-H1047R) and SKBR3 (PI3Kα-Wild Type) cell lines, respectively. […] The following day, plates were centrifuged for 1 minute at 1000 rpm, and read on a PHERAstar plate reader. […]
pIC50: −log10 of the molar value.
observable: pIC50

INSERT INTO assay_data (molecule, recorded_value) VALUES
  ('COc1c([C@H]2[C@@H]3CN(c4nc5c([C@@H](C)Nc6ccc(Cl)nc6C(=O)NS(C)(=O)=O)cc(C)cc5c(=O)n4C)C[C@@H]32)cnn1C [Compound 461]', '5.30 to 6.00'),
  ('COc1cnc(C2CCN(c3nc4c([C@@H](C)Nc5ccc(Cl)nc5C(=O)NS(C)(=O)=O)cc(C)cc4c(=O)n3C)CC2)nc1 [Compound 487]', '5.30 to 6.00'),
  ('Cc1cc([C@@H](C)Nc2ccc(Cl)nc2C(=O)NS(C)(=O)=O)c2nc(N3CC[C@H](c4ccnc(C)c4)C3)n(C)c(=O)c2c1 (relative stereo) [Compound 769]', '5.30 to 6.00'),
  ('Cc1cc([C@@H](C)Nc2ccc(Cl)nc2C(=O)NS(C)(=O)=O)c2nc(N3CCC(c4ncc(C5CC5)cn4)CC3)n(C)c(=O)c2c1 [Compound 509]', '≤ 5.30'),
  ('Cc1cc([C@@H](C)Nc2ccc(Cl)nc2C(=O)NS(C)(=O)=O)c2nc(N3CC[C@H](Oc4ncc(F)cn4)C3)n(C)c(=O)c2c1 [Compound 537]', '≤ 5.30'),
  ('COCCn1ncc(F)c1C1CCN(c2nc3c([C@@H](C)Nc4ccc(Cl)nc4C(=O)NS(C)(=O)=O)cc(C)cc3c(=O)n2C)CC1 [Compound 472]', '≤ 5.30');

###

Listed here: items and their measured pIC50.
# Test system: T47D (PI3Kα-H1047R) cell line
# experiment notes: HTRF phospho-AKT(S473) cell assay in T47D cells
# Format: cell-based, human
# condition summary: Homo sapiens; HTRF phospho-AKT(S473), T47D (PI3Kα-H1047R) cells, 2 hours compound incubation
# Experimental: Compounds in the present disclosure were tested in a cell based HTRF phospho-AKT(S473) (CisBio/Revvity) assay in human breast cancer cell lines as a measurement of PIK3CA activity through measuring AKT, a downstream effector. The activity of mutant PI3Kα-H1047R and PI3Kα-Wild Type was measured in the T47D (PI3Kα-H1047R) and SKBR3 (PI3Kα-Wild Type) cell lines, respectively. […] The following day, plates were centrifuged for 1 minute at 1000 rpm, and read on a PHERAstar plate reader. […]
pIC50: −log10 of the molar value.
observable: pIC50

INSERT INTO assay_data (compound, recorded_value) VALUES
  ('Cc1cc([C@@H](C)Nc2ccc(Cl)nc2C(=O)NS(C)(=O)=O)c2nc(N3C[C@H]4C[C@@H]3CN4c3nccnc3C)n(C)c(=O)c2c1', '6.30 to 6.60'),
  ('Cc1cc([C@@H](C)Nc2ccc(Cl)nc2C(=O)NS(C)(=O)=O)c2nc(N3C[C@@H]4[C@H](C3)[C@H]4c3cc4cccnn4n3)n(C)c(=O)c2c1', '> 6.60'),
  ('Cc1cc([C@@H](C)Nc2ccc(Cl)nc2C(=O)NS(C)(=O)=O)c2nc(C3CCCN(c4ncc(F)cn4)C3)n(C)c(=O)c2c1 (mixture of isomers)', '6.00 to 6.30');
